From: ChEMBL document CHEMBL4689842

# System: U2OS
# EXPERIMENT NOTES: Multiplex assay against U2OS
# Format: toxicity, cell-based
# STUDY CONDITIONS: human, 48 h, 10 µM, compound concentration 10 uM, replicate 2
Task for the reader: assign each of the following molecules its reported Population Hoechst High Intensity Objects (%).
State the answer as a number, implicitly in %.

Recorded Population Hoechst High Intensity Objects (%) (molecule CC(C)Oc1ccc(C(=O)N[C@H](CNC(=O)CN(C)C)Cc2ccc(-c3cn4cccc([C@H](C)O)c4n3)cc2)cc1Cl [GSK-923295A] ): 7

Recorded Population Hoechst High Intensity Objects (%) (molecule COc1ccc(NS(=O)(=O)c2sc3ccc(Cl)cc3c2C)cc1N1CCNCC1.Cl ): 6

Recorded Population Hoechst High Intensity Objects (%) (molecule Cc1nc(Cc2cccc(C(F)(F)F)c2)sc1-c1ccc(C(N)=O)nc1 [TP-024n] ): 6

Recorded Population Hoechst High Intensity Objects (%) (molecule Nc1ccc(C(=O)Nc2cccc(-c3nc(N4CCOCC4)c4oc5ncccc5c4n3)c2)cn1 ): 16

###

# System: U2OS
# EXPERIMENT NOTES: Multiplex assay against U2OS
# Format: toxicity, cell-based
# STUDY CONDITIONS: human, 12 h, 1 µM, compound concentration 1 uM, replicate 2
MEASURED ENDPOINT: Population Hoechst High Intensity Objects (%)
State the answer as a number, implicitly in %.

For the compound COc1ccc(NS(=O)(=O)c2sc3ccc(Cl)cc3c2C)cc1N1CCNCC1.Cl , the measured Population Hoechst High Intensity Objects (%) on U2OS was 12

For the compound O=C(O)c1ccc2cc(-c3ccc(O)c(C45CC6CC(CC(C6)C4)C5)c3)ccc2c1 , the measured Population Hoechst High Intensity Objects (%) on U2OS was 9

For the compound Cc1cc2c(cc1N1C(=O)c3cccc4c(CCCO)ccc(c34)C1=O)n(C)c(=O)n2C , the measured Population Hoechst High Intensity Objects (%) on U2OS was 8

For the compound Cc1nc(Cc2cccc(C(F)(F)F)c2)sc1-c1ccc(C(N)=O)nc1 [TP-024n] , the measured Population Hoechst High Intensity Objects (%) on U2OS was 11

For the compound CC(C)(C)c1cnc(CSc2cnc(NC(=O)C3CCNCC3)s2)o1 , the measured Population Hoechst High Intensity Objects (%) on U2OS was 15

For the compound Cl.Cl.Nc1ncnc2c1c(-c1cccc(OCc3ccccc3)c1)cn2[C@H]1C[C@@H](CN2CCC2)C1 , the measured Population Hoechst High Intensity Objects (%) on U2OS was 6

For the compound CN(C)CCOc1ccc(-c2nc(-c3ccncc3)c(-c3ccc4c(c3)CC/C4=N\O)[nH]2)cc1 , the measured Population Hoechst High Intensity Objects (%) on U2OS was 15

For the compound Cc1cn(-c2cc(NC(=O)c3ccc4c(c3)CN(c3cncnc3)C[C@@H]4C)cc(C(F)(F)F)c2)cn1 , the measured Population Hoechst High Intensity Objects (%) on U2OS was 16

For the compound CCOc1cc(N2CCC(O)CC2)ccc1Nc1ncc2c(n1)N(C1CCCC1)CCC(=O)N2C , the measured Population Hoechst High Intensity Objects (%) on U2OS was 7

For the compound CC(C)N1CCC(C)(C)c2cc(C#Cc3ccc(C(=O)O)cc3)ccc21 , the measured Population Hoechst High Intensity Objects (%) on U2OS was 13

For the compound Cl.Cl.NC1(c2ccc(-c3nc4ccn5c(=O)[nH]nc5c4cc3-c3ccccc3)cc2)CCC1 , the measured Population Hoechst High Intensity Objects (%) on U2OS was 12

For the compound c1ccc2oc(-c3csc(C4CCN(Cc5nc6ncccc6[nH]5)CC4)n3)cc2c1 , the measured Population Hoechst High Intensity Objects (%) on U2OS was 7

For the compound CCOc1cc2ncc(C#N)c(Nc3ccc(OCc4cccc(F)c4)c(Cl)c3)c2cc1NC(=O)/C=C/CN(C)C , the measured Population Hoechst High Intensity Objects (%) on U2OS was 16

For the compound CCC(=O)O[C@]1(C(=O)SCF)[C@H](C)C[C@H]2[C@@H]3C[C@H](F)C4=CC(=O)C=C[C@]4(C)[C@@]3(F)[C@@H](O)C[C@@]21C [FLUTICASONE PROPIONATE] , the measured Population Hoechst High Intensity Objects (%) on U2OS was 12

For the compound CC(=O)c1cc(-c2cc(C(=O)NC3CC3)ccc2C)c2ncccn12 , the measured Population Hoechst High Intensity Objects (%) on U2OS was 7

For the compound COc1cc2c(NC3CCN(C(C)C)CC3)nc(N3CCC(F)(F)CC3)nc2cc1OCCCN1CCCC1 , the measured Population Hoechst High Intensity Objects (%) on U2OS was 5

For the compound CNc1oc(-c2cccc3ccccc23)nc1C#N , the measured Population Hoechst High Intensity Objects (%) on U2OS was 15

For the compound CCCn1c(=O)c2[nH]c(C34CC5CC(CC3C5)C4)nc2n(CCC)c1=O , the measured Population Hoechst High Intensity Objects (%) on U2OS was 3
